ASSAY_SYSTEM: Adenosine receptor A3 (Homo sapiens, UniProt P0DMS8)
Sequence (P0DMS8 whole entry): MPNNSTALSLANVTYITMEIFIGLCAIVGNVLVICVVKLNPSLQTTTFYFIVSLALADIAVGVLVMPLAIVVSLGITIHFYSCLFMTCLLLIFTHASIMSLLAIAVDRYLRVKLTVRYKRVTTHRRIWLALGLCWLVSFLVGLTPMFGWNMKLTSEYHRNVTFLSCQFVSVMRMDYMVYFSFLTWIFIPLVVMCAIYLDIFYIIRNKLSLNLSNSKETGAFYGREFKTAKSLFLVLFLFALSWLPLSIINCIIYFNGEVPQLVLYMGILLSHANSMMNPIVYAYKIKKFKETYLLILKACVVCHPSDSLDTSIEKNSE
pKi: −log10 of the molar value.
Kind request: treat 7 as inclusive, so pKi at 7 or higher is true, anything lower is false.

> print(dat)
                                smiles.entry  category.label
 1              CNc1nc(N)n2nc(-c3ccco3)nc2n1           false
 2  O=C(Nc1ccccc1)Nc1nc(NCc2ccccc2)nc2nc(-c3ccco3)nn12            true
 3          CC(C)Nc1nc(N)n2nc(-c3ccco3)nc2n1           false
 4  CC(C)Nc1nc(NC(=O)Nc2ccccc2)n2nc(-c3ccco3)nc2n1           false
 5  CNc1nc(NCc2ccc(F)cc2)n2nc(-c3ccco3)nc2n1           false
 6  O=C(Nc1nc(NC2CCCCC2)nc2nc(-c3ccco3)nn12)c1ccccc1           false
 7      CNc1nc(NC2CCCCC2)n2nc(-c3ccco3)nc2n1           false
 8  O=C(Cc1ccccc1)Nc1nc(NCc2ccccc2)nc2nc(-c3ccco3)nn12            true
 9      Nc1nc(NCc2ccccc2)nc2nc(-c3ccco3)nn12            true
10     CNc1nc(NCc2ccccc2)n2nc(-c3ccco3)nc2n1           false
11  O=C(Nc1nc(NCc2ccccc2)nc2nc(-c3ccco3)nn12)c1ccccc1           false

###

Organism: Homo sapiens
EXPERIMENTAL_DETAILS: Selectivity index, ratio of Ki for human A1 adenosine receptor to Ki for human A2A adenosine receptor
Below, each of the compounds is paired with its reported Ratio Ki value.
ATTRIBUTE_MEASURED: Ratio Ki

> print(dat)
                                smiles.entry  attribute.measured  value.comparator  reported.result
 1  O=C(Nc1ccccc1)Nc1nc(NC2CCCCC2)nc2nc(-c3ccco3)nn12            Ratio Ki                 =              120
 2  CC(C)Nc1nc(NC(=O)Cc2ccccc2)n2nc(-c3ccco3)nc2n1            Ratio Ki                 =             18.2
 3  O=C(Cc1ccccc1)Nc1nc(NC2CCCCC2)nc2nc(-c3ccco3)nn12            Ratio Ki                 =             42.8
 4  Fc1ccc(CNc2nc(NC3CCCCC3)nc3nc(-c4ccco4)nn23)cc1            Ratio Ki                 >              893
 5  c1ccc(Oc2nc(NC3CCCCC3)n3nc(-c4ccco4)nc3n2)cc1            Ratio Ki                 =              6.7
 6  CNc1nc(NC(=O)c2ccccc2)n2nc(-c3ccco3)nc2n1            Ratio Ki                 =             54.1
 7              CNc1nc(N)n2nc(-c3ccco3)nc2n1            Ratio Ki                 =             52.1
 8  O=C(Nc1nc(NC2CCCCC2)nc2nc(-c3ccco3)nn12)c1ccccc1            Ratio Ki                 =             7.41
 9  CNc1nc(NC(=O)Nc2ccccc2)n2nc(-c3ccco3)nc2n1            Ratio Ki                 =             38.6
10  Fc1ccc(CNc2nc(Oc3ccccc3)nc3nc(-c4ccco4)nn23)cc1            Ratio Ki                 >              110
11     CNc1nc(NCc2ccccc2)n2nc(-c3ccco3)nc2n1            Ratio Ki                 =               16

The measurements presented in this section are drawn from ChEMBL document CHEMBL3751698.
